These data points were gathered from patent US20020160932A1.

// SI bovine BHV lookup, one value per entry
- Test system: BHV
- Protocol notes: in vitro viral replication assay, bovine BHV;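 note: ratio of CC50 to antiviral IC50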
- Format: cell-based
- Condition notes: selectivity index SI=(CC50/IC50)
Assay endpoint: SI bovine BHV

# Structure, System under test, Assay endpoint, Prefix operator, Endpoint result
records = [
    ("Cc1nc(N(C)C(=O)Cc2ccc(-c3cc(F)ccc3F)cc2)sc1S(N)(=O)=O", "BHV", "SI bovine BHV", "=", 6660),
    ("Cc1nc(N(C)C(=O)Cc2ccc(-c3ccccc3)cc2)sc1S(N)(=O)=O", "BHV", "SI bovine BHV", "=", 5000),
    ("CNS(=O)(=O)c1sc(N(C)C(=O)Cc2ccc(-c3ccccc3)cc2)nc1C", "BHV", "SI bovine BHV", "=", 400),
    ("Cc1nc(N(C)C(=O)Nc2ccc(N3CCOCC3)cc2)sc1S(=O)(=O)N(C)C", "BHV", "SI bovine BHV", ">", 167),
    ("Cc1nc(N(C)C(=O)Cc2ccc(-c3ccccn3)cc2)sc1S(N)(=O)=O", "BHV", "SI bovine BHV", "=", 240),
]

---

- System under test: HSV-1 helicase-primase heterodimer enzyme complex (UL5-UL52-6xHis) (Human herpesvirus 1, UniProt P10189+P10236)
- Sequence (P10236 whole entry): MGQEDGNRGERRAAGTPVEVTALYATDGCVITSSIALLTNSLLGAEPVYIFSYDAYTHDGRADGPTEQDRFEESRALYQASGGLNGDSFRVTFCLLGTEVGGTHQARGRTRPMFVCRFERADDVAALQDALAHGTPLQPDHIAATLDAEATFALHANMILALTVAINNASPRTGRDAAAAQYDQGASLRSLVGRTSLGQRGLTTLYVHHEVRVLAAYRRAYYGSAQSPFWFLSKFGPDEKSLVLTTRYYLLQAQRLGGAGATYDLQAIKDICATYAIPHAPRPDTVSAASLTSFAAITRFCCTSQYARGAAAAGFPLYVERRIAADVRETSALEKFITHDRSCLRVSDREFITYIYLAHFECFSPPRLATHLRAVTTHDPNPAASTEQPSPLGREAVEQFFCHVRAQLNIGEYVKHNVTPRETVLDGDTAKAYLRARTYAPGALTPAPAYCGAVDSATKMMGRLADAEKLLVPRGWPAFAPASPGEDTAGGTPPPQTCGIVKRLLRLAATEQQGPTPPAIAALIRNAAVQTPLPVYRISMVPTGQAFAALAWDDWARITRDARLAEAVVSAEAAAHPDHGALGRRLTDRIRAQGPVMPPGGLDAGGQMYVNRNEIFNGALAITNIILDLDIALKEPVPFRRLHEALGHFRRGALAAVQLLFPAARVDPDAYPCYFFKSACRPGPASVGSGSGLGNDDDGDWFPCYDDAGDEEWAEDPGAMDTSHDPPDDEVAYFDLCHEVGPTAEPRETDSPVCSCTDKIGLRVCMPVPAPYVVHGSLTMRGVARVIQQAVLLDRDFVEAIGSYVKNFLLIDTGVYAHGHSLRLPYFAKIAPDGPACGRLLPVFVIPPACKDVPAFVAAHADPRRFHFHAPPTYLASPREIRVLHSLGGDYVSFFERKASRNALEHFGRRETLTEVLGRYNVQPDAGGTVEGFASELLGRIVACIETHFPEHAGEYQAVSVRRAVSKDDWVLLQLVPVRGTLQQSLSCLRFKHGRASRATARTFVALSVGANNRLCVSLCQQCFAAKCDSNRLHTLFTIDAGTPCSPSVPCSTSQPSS
- Sequence (P10189 whole entry): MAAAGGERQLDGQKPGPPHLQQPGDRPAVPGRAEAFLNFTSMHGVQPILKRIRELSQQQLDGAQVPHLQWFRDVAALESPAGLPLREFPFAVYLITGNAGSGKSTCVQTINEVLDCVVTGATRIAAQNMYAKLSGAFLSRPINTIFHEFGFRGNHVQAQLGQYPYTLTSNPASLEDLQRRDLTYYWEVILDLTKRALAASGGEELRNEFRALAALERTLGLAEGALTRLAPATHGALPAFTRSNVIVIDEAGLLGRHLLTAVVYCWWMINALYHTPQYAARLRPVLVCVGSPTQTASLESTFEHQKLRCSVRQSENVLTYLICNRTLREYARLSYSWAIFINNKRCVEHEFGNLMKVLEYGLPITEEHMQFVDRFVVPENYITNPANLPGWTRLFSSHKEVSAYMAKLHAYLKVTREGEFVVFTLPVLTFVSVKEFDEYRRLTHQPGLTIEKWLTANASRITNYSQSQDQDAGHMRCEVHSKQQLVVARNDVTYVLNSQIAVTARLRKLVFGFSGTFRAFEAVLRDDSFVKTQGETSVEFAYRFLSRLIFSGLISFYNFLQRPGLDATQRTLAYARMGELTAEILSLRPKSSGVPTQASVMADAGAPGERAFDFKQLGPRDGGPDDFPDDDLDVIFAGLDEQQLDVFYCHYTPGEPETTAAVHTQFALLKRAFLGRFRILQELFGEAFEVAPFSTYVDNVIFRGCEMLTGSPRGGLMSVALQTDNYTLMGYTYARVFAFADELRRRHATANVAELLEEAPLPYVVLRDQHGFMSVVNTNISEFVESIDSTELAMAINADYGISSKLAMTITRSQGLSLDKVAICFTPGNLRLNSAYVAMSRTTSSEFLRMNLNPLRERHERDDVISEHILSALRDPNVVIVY
- Protocol notes: HSV-1 DNA-dependent ATPase assay
pKi: −log10 of the molar value.

# Molecule, pKi
rows = [
    ("Cc1nc(N(C)C(=O)Cc2ccc(-c3ccccn3)cc2)sc1S(N)(=O)=O [Example 7]", 7.52),
]

---

- Test system: Wild-type HSV-1 (F)
- Protocol notes: in vitro viral replication assay, wild-type HSV-1 (F);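 note: ratio of CC50 to antiviral IC50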
- Assay type: cell-based, herpes simplex virus 1
- Condition notes: selectivity index SI=(CC50/IC50)
We begin with a simple list: items and their reported SI Wild-type HSV-1 (F).
Assay endpoint: SI Wild-type HSV-1 (F)

# Compound, Endpoint result
data = [
    ("CNS(=O)(=O)c1sc(N(C)C(=O)Nc2ccc(N3CCOCC3)cc2)nc1C", 400),
    ("Cc1nc(N(C)C(=O)Nc2ccc(N3CCOCC3)cc2)sc1S(=O)(=O)N(C)C", 350),
    ("Cc1nc(N(C)C(=O)Cc2ccc(-c3ccccn3)cc2)sc1S(N)(=O)=O", 2500),
    ("CNS(=O)(=O)c1sc(N(C)C(=O)Nc2ccc(-c3ccccc3)cc2)nc1C", "3E+05"),
    ("CNS(=O)(=O)c1sc(N(C)C(=O)Cc2ccc(-c3ccccc3)cc2)nc1C", "1E+05"),
    ("Nc1nc2c(ncn2COCCO)c(=O)[nH]1 [Acyclovir, acyclovir, reference compound]", 250),
]

---

# pIC50 per record follows
- Test system: PRV
- Protocol notes: cells
- Assay type: cell-based, porcine (PRV)
- Condition notes: read-out: IC50 porcine PRV
pIC50: −log10 of the molar value.

# Structure, pIC50
rows = [
    ("Cc1nc(N(C)C(=O)Nc2ccc(N3CCOCC3)cc2)sc1S(=O)(=O)N(C)C", 5.40),
    ("Cc1nc(N(C)C(=O)Cc2ccc(-c3cc(F)ccc3F)cc2)sc1S(N)(=O)=O", 5.82),
    ("Cc1nc(N(C)C(=O)Cc2ccc(-c3ccccc3)cc2)sc1S(N)(=O)=O", 5.10),
    ("CNS(=O)(=O)c1sc(N(C)C(=O)Cc2ccc(-c3ccccc3)cc2)nc1C", 5.52),
]
